From: patent US4011221A

Tested on: chick embryo heart cells
Test: Effect on proliferation of chick embryo heart cells in the presence of a growth inhibitor, KCN (Experiments 3 and 4)
Type: cell-based
Details: Gallus gallus, 24 h; Experiment 4, 20 μg/ml, KCN 1.7 μg per ml, KCN control = 100.0; read-out: Growth rate (%)
Experimental: After washing with calcium and magnesium-free phosphate buffered saline (PBS), the pieces of hearts were treated with a solution of 0.1% trypsin in PBS freed from calcium and magnesium ions, and the supernatant fraction was discarded. […] The number of cells was counted with a hemocytometer in quadruplicate after vigorous shaking. […] After an additional 1 day of incubation the number of cells was counted. […]
readoutType: activity at 20 µg/mL (%)
Lab book: enter the figure in %, no units written.

Query :: GET /values?readout=activity at 20 µg/mL&item= Nc1ncnc2c1ncn2[C@@H]1O[C@H](CSCC[C@H](N)C(=O)O)[C@@H](O)[C@H]1O
Result :: 99.1

Query :: What about Nc1nc2c(ncn2[C@@H]2O[C@H](CSCC[C@H](N)C(=O)O)[C@@H](O)[C@H]2O)c(=O)[nH]1 ?
Result :: 101

Query :: Ok, now Nc1ncnc2c1ncn2[C@@H]1O[C@H](CSC[C@H](N)C(=O)O)[C@@H](O)[C@H]1O
Result :: 97.6

Query :: Then this compound: N[C@@H](CCSC[C@H]1O[C@@H](n2cnc3c(=O)[nH]cnc32)[C@H](O)[C@@H]1O)C(=O)O
Result :: 112

Query :: Same read-out for N[C@@H](CSC[C@H]1O[C@@H](n2cnc3c(=O)[nH]cnc32)[C@H](O)[C@@H]1O)C(=O)O ?
Result :: 130

---

Tested on: chick embryo heart cells
Assay: Effect on proliferation of chick embryo heart cells in the presence of a growth inhibitor, KCN (Experiments 3 and 4)
Type: cell-based
Conditions: Experiment 3, 50 μg/ml, KCN 1.7 μg per ml
Method: After washing with calcium and magnesium-free phosphate buffered saline (PBS), the pieces of hearts were treated with a solution of 0.1% trypsin in PBS freed from calcium and magnesium ions, and the supernatant fraction was discarded. […] The number of cells was counted with a hemocytometer in quadruplicate after vigorous shaking. […] After an additional 1 day of incubation the number of cells was counted. […]
readoutType: Cell number ± S.E.

N[C@@H](CS)C(=O)O [L-cysteine] ... 41.9 ± 6.3 ×10^4 cells
N[C@@H](CSC[C@H]1O[C@@H](n2cnc3c(=O)[nH]cnc32)[C@H](O)[C@@H]1O)C(=O)O [S-inosyl-L-cysteine] ... 50.9 ± 1.5 ×10^4 cells
Nc1ncnc2c1ncn2[C@@H]1O[C@H](CO)[C@@H](O)[C@H]1O [adenosine] ... 33.3 ± 1.9 ×10^4 cells

# ---- query compound ----
Query :: # query: Cell number ± S.E. of entry OC[C@H]1O[C@@H](n2cnc3c(O)ncnc32)[C@H](O)[C@@H]1O [inosine]
Result :: 37.2 ± 4.4 ×10^4 cells

---

test system: chick embryo heart cells; test: Effect on proliferation of chick embryo heart cells (Experiments 1 and 2); format: cell-based; conditions: Gallus gallus, 72 h; Experiment 1, 50 μg/ml, control = 100.0; read-out: Growth rate %
# maps each entry to its activity at 50 µg/mL
Express your answer in %, writing the number without its unit.

Here's what some known entries look like.
OC[C@H]1O[C@@H](n2cnc3c(O)ncnc32)[C@H](O)[C@@H]1O [inosine] ... 106
N[C@@H](CSC[C@H]1O[C@@H](n2cnc3c(=O)[nH]cnc32)[C@H](O)[C@@H]1O)C(=O)O [S-inosyl-L-cysteine] ... 128
N[C@@H](CS)C(=O)O [L-cysteine] ... 99.2

Switching to the query record.
Query :: Please provide the recorded activity at 50 µg/mL for Nc1ncnc2c1ncn2[C@@H]1O[C@H](CO)[C@@H](O)[C@H]1O [adenosine] , tested on chick embryo heart cells.
Result :: 86.6

---

System: chick embryo heart cells
Experiment: Effect on proliferation of chick embryo heart cells (Experiments 1 and 2)
Format: cell-based
Conditions: Experiment 2, 20 μg/ml, 1 day with compound after 3 days of incubation
Procedure: A. Effect of S-inosylcysteine on proliferation of chick embryo heart cells. Method: The hearts excised from 13-day-old chick embryos were cut into pieces 1 to 2 mm in diameter under sterile conditions. […] The number of cells was counted with a hemocytometer in quadruplicate after vigorous shaking. Method: The culture procedure for chick embryo heart cells was employed as described in Experiment 1. […] After an additional 1 day of incubation the number of cells was counted.
Documented Cell number ± S.E. across a set of compounds

Solved entries (count: 4):
Nc1ncnc2c1ncn2[C@@H]1O[C@H](CSC[C@H](N)C(=O)O)[C@@H](O)[C@H]1O [S-adenosyl-L-cysteine] ... 74.8 ± 4.7 ×10^4 cells
N[C@@H](CSC[C@H]1O[C@@H](n2cnc3c(=O)[nH]cnc32)[C@H](O)[C@@H]1O)C(=O)O [S-inosyl-L-cysteine] ... 97.8 ± 3.8 ×10^4 cells
Nc1ncnc2c1ncn2[C@@H]1O[C@H](CSCC[C@H](N)C(=O)O)[C@@H](O)[C@H]1O [S-adenosyl-L-homocysteine] ... 71.5 ± 3.4 ×10^4 cells
Nc1nc2c(ncn2[C@@H]2O[C@H](CSCC[C@H](N)C(=O)O)[C@@H](O)[C@H]2O)c(=O)[nH]1 [S-guanosyl-L-homocysteine] ... 69.2 ± 1.8 ×10^4 cells

Continue with the next compound.
Query :: Query: Cell number ± S.E.; subject: N[C@@H](CCSC[C@H]1O[C@@H](n2cnc3c(=O)[nH]cnc32)[C@H](O)[C@@H]1O)C(=O)O [S-inosyl-L-homocysteine]
Result :: 78.2 ± 7.5 ×10^4 cells
